// values below are reported pKd
TESTED ON: T1, alpha-conotoxin MI (CTX-MI) (Conus magus, UniProt P01521 1-14, disulfide (positions not given here); not fully specified; also: two disulfides as in P01521)
T1 chain: GRCCHPACGKNYSC-NH2
METHOD SUMMARY: BLI
ASSAY CONDITIONS: protein: commercial; tags: none; label: biotin
Where no end group is shown, it is not given here.
Convention used: pKd is expressed as -log10 of the molar concentration.

Examples with answers:
BINDER	pKd
MBMI-01 (ssDNA) DNA: ATTGGCACTCCACGCATAGGTTTGGGGATGGGCAACGGTAAAAAGGGTCAAAAGGCTTTTCCTATGCGTGCTACCGTGAA	6.07
MBMI-02 (ssDNA) DNA: ATTGGCACTCCACGCATAGGATTTGGGTTTCGGGATAAGGGGCAAAAGGACAGGTTTTGTCCTATGCGTGCTACCGTGAA	5.66
MBMI-22 (ssDNA) DNA: ATTGGCACTCCACGCATAGGCAAGAAGGGGGAGGGTGGTATGTGTCGGGGGGAGGGGTGGCCTATGCGTGCTACCGTGAA	4.67
MBMI-39 (ssDNA) DNA: ATTGGCACTCCACGCATAGGGTAGGGGATTTAAGGAGGGGCCTTAGGAGGGGGGGGGTAACCTATGCGTGCTACCGTGAA	6.37

Continue with the binder presented below.
Lookup: Determine from records and report pKd for ATTTGGGTTTCGGGATAAGGGGCAAAAGGACAGGTTTTGT (ssDNA) [MBMI-02c]
Found: 5.89

The measured values listed here are drawn from paper PMC9606946.
